- test system: Cytochrome P450 1A2 (Homo sapiens)
- measurement description: Cytochrome panel assay with activity outcomes
- test context: recombinant CYP, pro-luciferin dealkylation, luminescence, p450-cyp1a2; series mostly up to 57.1 µM
Screen size: about 16,000 compounds; about 5,700 (36%) were called active. Another 24% or so got no clear call; they are omitted. Some of the results follow.
measure name: AC50

Query: Reported AC50, compound `COc1cccc(N2CCN(C(=O)Nc3ccc4c(c3)NC(=O)CO4)CC2)c1` : ____
Result: inactive

Query: Reported AC50, compound `O=C(CSc1nc2ccccc2o1)N1c2ccccc2Sc2ccc(Cl)cc21` : ____
Result: 2240 nM (active)

Query: Reported AC50, compound COc1cccc(C(C(=O)Nc2ccc(F)cc2)N(C(=O)Cn2nnc3ccccc32)C2CC2)c1 (stereo unspecified) : ____
Result: inactive

Query: Reported AC50, compound `COc1ccc(-c2nc3cnc(N4CCN(C)CC4)nc3n(CCc3ccccc3)c2=O)cc1` : ____
Result: inactive

Query: Reported AC50, compound `O=C(CSc1nc2ccccc2s1)c1sc2sc3ccccc3[n+]2c1O` : ____
Result: 5010 nM (active)

Okay, here is my list. What is AC50 for each of these?
1. CN1C2C=C(N(CCc3c[nH]c4ccccc34)C(=O)c3ccc(Cl)cc3)CC1CC2 (stereo unspecified)
2. C=CCSC[C@@H]1Nc2cc(Cl)c(S(N)(=O)=O)cc2S(=O)(=O)N1
3. O=C(CSc1nc2ccccc2s1)N1c2ccccc2Sc2ccc(C(F)(F)F)cc21
4. O=C(CSc1nc2ccccc2s1)N1c2ccccc2Sc2ccccc21
5. COc1ccc2c(c1)CCCC21NC(=O)N(CC(N)=O)C1=O (stereo unspecified)
6. COCCn1c(=O)c(C)nc2cnc(N3CCNCC3)nc21

Result:
1. inactive
2. inactive
3. 1120 nM (active)
4. 708 nM (active)
5. inactive
6. 10000 nM (active)

Okay, here is my list. What is AC50 for each of these?
1. COc1ccc(Oc2ncc3nc(-c4cccs4)c(=O)n(C)c3n2)cc1
2. O=C(Nc1ccccc1)[C@@]12C[C@@H]1/C(=N/O)c1ccccc1O2
3. CCC(C)NS(=O)(=O)c1ccc(OCC(=O)Nc2ccc3c(c2)OCCO3)cc1 (stereo unspecified)
4. CC1(C)CC(=O)C2=C(C1)Nc1cc3c(cc1C2c1ccc(F)cc1)OCO3 (stereo unspecified)
5. CN(c1ccc(C(=O)NCc2ccccn2)cc1)S(C)(=O)=O
6. COc1ncc2nc(-c3cccs3)c(=O)n(C)c2n1
7. CC(C)(C)CC(C)(C)c1ccc(OCOCCOCCO)c(Cc2cc(C(C)(C)CC(C)(C)C)cc(Cc3cc(C(C)(C)CC(C)(C)C)ccc3OCOCCOCCO)c2OCOCCOCCO)c1

Result:
["3160 nM (active)", "2510 nM (active)", "inactive", "6310 nM (active)", "inactive", "2000 nM (active)", "inactive"]

Okay, here is my list. What is AC50 for each of these?
1. CCOC(=O)[C@@]12C[C@@H]1/C(=N/O)c1ccccc1O2
2. Fc1ccc2nc3[nH]c4ccccc4c3nc2c1
3. O=C(O)CN=C1NC2(CCCC2)Cc2ccccc21

Result:
3980 nM (active)
1000 nM (active)
inactive
